In this section we review reported LC retention time values for a set of compounds.
assay: RP, Merck Supelco Ascentis Express C18, 100 × 2.1 mm, 2 µm, 40 °C, 0.4 mL/min, estimated dead time 0.55 min; A: water + 0.1% formic acid, pH 3; B: acetonitrile + 0.1% formic acid, pH 3; gradient (min/%B) 0/5 2/5 17/99.9 20/99.9; conditions: stereoisomer not certain
metric: LC retention time (min)

INSERT INTO assay_data (compound, unit_text, observed_result) VALUES
  ('Nc1nc2c(ncn2C2CC(O)C(CO)O2)c(=O)[nH]1 (stereo not given)', 'min', 0.707),
  ('CC(O)(CC(=O)O)CC(=O)O [3-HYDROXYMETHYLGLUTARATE]', 'min', 0.76),
  ('O=C(O)c1ccnc2ccccc12 [4-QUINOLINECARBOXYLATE]', 'min', 0.763),
  ('O=C(O)CCCCCCCCCO [10-HYDROXYDECANOATE]', 'min', 6.55),
  ('O=C(O)c1ccc(=O)[nH]c1 [6-HYDROXYNICOTINATE]', 'min', 0.773);
